# System: U2OS
# run_description: Multiplex assay against U2OS
# Assay type: toxicity, cell-based
# test_settings: human, 12 h, 1 µM, compound concentration 1 uM, replicate 2
recorded_endpoint: Population Tubulin-Different-Phenotype (%)
Please give a number only; it is taken to be in %.

COc1cccc([C@@H](C)NCCCc2ccccc2Cl)c1.Cl [TECALCET HYDROCHLORIDE]: 18

Field request: Population Tubulin-Different-Phenotype (%) | item: Cc1cc(C)cc(-c2cnc3cc(Cl)c(-c4cccc(O)c4)cc3c2OCCCN)c1
56

If you can, please state the reported Population Tubulin-Different-Phenotype (%) value of COc1cc2nccc(Oc3ccc(NC(=O)Nc4cc(C)on4)c(Cl)c3)c2cc1OC.O .
19

// returns reported Population Tubulin-Different-Phenotype (%) for input OC1(c2ccc(Cl)cc2)CCN(Cc2c[nH]c3ccccc23)CC1
9

Please look up its Population Tubulin-Different-Phenotype (%): CN1CCCC(n2nc(Cc3ccc(Cl)cc3)c3ccccc3c2=O)CC1.Cl (stereo not drawn) [AZELASTINE HYDROCHLORIDE]
68

So what's the measured Population Tubulin-Different-Phenotype (%) for this one? CC(C)NCC(O)COc1ccc(CCOCC2CC2)cc1.Cl (stereo not drawn) [BETAXOLOL HYDROCHLORIDE]
9

Bench note: what Population Tubulin-Different-Phenotype (%) did Cc1[nH]c(/C=C2\C(=O)Nc3ccc(S(=O)(=O)N(C)c4cccc(Cl)c4)cc32)c(C)c1C(=O)N1CCN(C)CC1 show?
68

Which Population Tubulin-Different-Phenotype (%) is reported for this compound? Cl.N#Cc1ccc2[nH]cc(CCCCN3CCN(c4ccc5oc(C(N)=O)cc5c4)CC3)c2c1 [VILAZODONE HYDROCHLORIDE]
18
